Taken from patent US20250019437A1.

Target: T1, human TREM2 (triggering receptor expressed on myeloid cells 2) (human) (UniProt Q9NZC2)
T1 sequence (looked up): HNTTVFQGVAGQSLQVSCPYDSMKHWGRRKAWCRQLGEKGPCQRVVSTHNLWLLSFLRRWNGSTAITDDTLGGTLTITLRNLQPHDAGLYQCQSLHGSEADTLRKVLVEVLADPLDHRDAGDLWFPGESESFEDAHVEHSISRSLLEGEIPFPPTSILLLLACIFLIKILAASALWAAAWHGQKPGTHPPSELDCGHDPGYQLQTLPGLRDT
Experiment: 2nd screen, 100 nM Ab
recorded.metric: Binding Signal (fold over 6E7 parental antibody) (fold)

| binder | measurement.unit | numeric.result |
| --- | --- | --- |
| 6E7 antibody affinity modulation variant V11 (antibody, V domains shown) VH: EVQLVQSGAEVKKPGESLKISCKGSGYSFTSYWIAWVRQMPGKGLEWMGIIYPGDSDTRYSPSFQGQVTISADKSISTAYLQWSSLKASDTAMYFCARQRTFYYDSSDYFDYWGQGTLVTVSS VL: DIQMTQSPSSVSASVGDRVTITCRASQGISSWLAWYQQKPGKAPKLLIYAASSLQNGVPSRFSGSGSGTDFTLTISSLQPEDFATYFCQQAASFPRTFGQGTKLEIK | fold | 0.42 |
| 6E7 antibody affinity modulation variant V42 (antibody, V domains shown) VH: EVQLVQSGAEVKKPGESLKISCKGSGYSFTSAWIAWVRQMPGKGLEWMGIIYPGDSDTRYSPSFQGQVTISADKSISTAYLQWSSLKASDTAMYFCARQRTFYYDSSDYFDYWGQGTLVTVSS VL: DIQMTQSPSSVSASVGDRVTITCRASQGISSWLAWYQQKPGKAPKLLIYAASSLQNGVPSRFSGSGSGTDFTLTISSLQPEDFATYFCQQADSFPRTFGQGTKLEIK | fold | 0.41 |
| 6E7 antibody affinity modulation variant V78 (antibody, V domains shown) VH: EVQLVQSGAEVKKPGESLKISCKGSGYRFTSYWIAWVRQMPGKGLEWMGIIYPGDSDTRYSPSFQGQVTISADKSISTAYLQWSSLKASDTAMYFCARQRTFYYDSSDYFDYWGQGTLVTVSS VL: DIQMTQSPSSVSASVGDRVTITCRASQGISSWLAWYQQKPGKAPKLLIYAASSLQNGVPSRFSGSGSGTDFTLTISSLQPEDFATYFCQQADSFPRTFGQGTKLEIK | fold | 1.11 |
